Assay Details: in vivo
Conditions Used: Sprague-Dawley, rat, ip, 10 mg/kg
Measured Property: half-life
Answer by giving the amount and then stating its unit.

What does the record list as half-life for Nc1nc2c(c(N3CCNCC3)n1)CCC1=C2[C@@H]2CCCC[C@@H]2O1 (relative stereo) ?
4.7 h

====

System Tested: Vasopressin V1a receptor (Homo sapiens, UniProt P37288)
Sequence (P37288 whole entry): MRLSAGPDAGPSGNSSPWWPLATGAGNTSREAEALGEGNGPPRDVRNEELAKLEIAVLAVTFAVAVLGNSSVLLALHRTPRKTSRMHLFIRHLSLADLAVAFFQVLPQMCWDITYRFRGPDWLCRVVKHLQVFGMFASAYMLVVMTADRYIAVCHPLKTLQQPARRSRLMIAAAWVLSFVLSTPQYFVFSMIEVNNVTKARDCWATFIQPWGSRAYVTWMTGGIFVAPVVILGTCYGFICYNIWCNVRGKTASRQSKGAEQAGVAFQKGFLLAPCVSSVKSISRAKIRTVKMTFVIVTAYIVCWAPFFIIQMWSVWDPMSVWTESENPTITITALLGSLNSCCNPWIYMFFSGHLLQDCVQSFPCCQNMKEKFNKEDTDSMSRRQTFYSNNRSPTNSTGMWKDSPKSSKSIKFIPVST
Measured Property: Ki
Answer by giving the amount and then stating its unit.

What does the record list as Ki for Nc1nc2c(c(N3CCNCC3)n1)CCC1=C2[C@@H]2CCCC[C@@H]2O1 (relative stereo) ?
2.4 nM
